This collection of values is drawn from patent US20230357429A1.

molecular target: T1, Peptide-2 (cysteine pairing not given here; also: biotinylated (site not given here)); experiment: ELISA, Fab on captured biotin-peptide
T1 peptide: IDFCAVYKWPVCQV
Where no end group is shown, it is not given here.

BINDER	EC50 (nM)
TBD-6 (LC I93A) (Fab, V domains shown, Fab; also called LC I93A mutant) VH: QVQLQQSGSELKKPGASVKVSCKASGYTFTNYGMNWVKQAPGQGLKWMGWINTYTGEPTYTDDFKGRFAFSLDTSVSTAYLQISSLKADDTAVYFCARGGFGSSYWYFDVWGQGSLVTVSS VL: DIQLTQSPSSLSASVGDRVSITCKASQDVSIAVAWYQQKPGKAPKLLIYSASYRYTGVPDRFSGSGSGTDFTLTISSLQPEDFAVYYCQQHYATPLTFGAGTKVEIKR	9.9
TBD-22 (HC D109A) (Fab, V domains shown, Fab; also called HC D109A mutant) VH: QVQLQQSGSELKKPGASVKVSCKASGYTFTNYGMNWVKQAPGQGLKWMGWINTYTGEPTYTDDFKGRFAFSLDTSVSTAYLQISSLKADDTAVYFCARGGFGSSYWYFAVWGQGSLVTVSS VL: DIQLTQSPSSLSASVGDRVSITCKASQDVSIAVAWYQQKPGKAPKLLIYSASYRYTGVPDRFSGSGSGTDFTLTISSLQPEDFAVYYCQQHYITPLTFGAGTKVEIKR	1.1
TBD-21 (HC F108A) (Fab, V domains shown, Fab; also called HC F108A mutant) VH: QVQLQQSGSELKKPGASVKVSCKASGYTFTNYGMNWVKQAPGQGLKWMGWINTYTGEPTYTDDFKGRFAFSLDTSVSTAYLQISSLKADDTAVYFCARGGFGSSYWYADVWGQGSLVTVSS VL: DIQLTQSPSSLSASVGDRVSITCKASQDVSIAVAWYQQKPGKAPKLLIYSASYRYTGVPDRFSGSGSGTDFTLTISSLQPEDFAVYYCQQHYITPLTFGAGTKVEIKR	12.9
